The measurements presented in this section are drawn from patent US8952024B2.

tested on: blackgrass (Alopecurus myosuroides); test: Test B pre-/postemergence plant response; type: in vivo; conditions: Postemergence, 125 g ai/ha; scale 0 to 100 (0 no effect, 100 complete control)
VALUE_KIND: Plant response rating, Blackgrass
// no unit string in output, number only

>>> measurement("COc1ccc(-n2c(-c3ccccc3)ncc(C(=O)C3=C(O)CCCC3=O)c2=O)cc1OC")
5

Requested field: Plant response rating, Blackgrass. Item: CCCn1c(-c2ccc(F)cc2)ncc(C(=O)C2=C(O)CCCC2=O)c1=O
30

Quick one: Plant response rating, Blackgrass for O=C1CCCC(O)=C1C(=O)c1cnc(-c2ccccc2)n(C2CCSCC2)c1=O ?
10

// returns reported Plant response rating, Blackgrass for input O=C1CCCC(O)=C1C(=O)c1cnc(-c2cccs2)n(C2CCCCC2)c1=O
5

GET /values?readout=Plant response rating, Blackgrass&item= CCc1ccc(-n2c(-c3ccccc3)ncc(C(=O)C3=C(O)CCCC3=O)c2=O)cc1
55

Reported Plant response rating, Blackgrass, compound COCC(C)n1c(-c2ccccc2)ncc(C(=O)C2=C(O)CCCC2=O)c1=O (centres unmarked) : ____
15

Consider the compound COCCn1c(-c2cccc(C)c2)ncc(C(=O)C2=C(O)CCCC2=O)c1=O and give its measured Plant response rating, Blackgrass.
40

Requested field: Plant response rating, Blackgrass. Item: COCCn1c(-c2cccc(Cl)c2)ncc(C(=O)C2=C(O)CCCC2=O)c1=O
45
